Target: human Ang-2 V345M (human) (UniProt O15123)
Sequence (O15123 19-496, stated change not applied): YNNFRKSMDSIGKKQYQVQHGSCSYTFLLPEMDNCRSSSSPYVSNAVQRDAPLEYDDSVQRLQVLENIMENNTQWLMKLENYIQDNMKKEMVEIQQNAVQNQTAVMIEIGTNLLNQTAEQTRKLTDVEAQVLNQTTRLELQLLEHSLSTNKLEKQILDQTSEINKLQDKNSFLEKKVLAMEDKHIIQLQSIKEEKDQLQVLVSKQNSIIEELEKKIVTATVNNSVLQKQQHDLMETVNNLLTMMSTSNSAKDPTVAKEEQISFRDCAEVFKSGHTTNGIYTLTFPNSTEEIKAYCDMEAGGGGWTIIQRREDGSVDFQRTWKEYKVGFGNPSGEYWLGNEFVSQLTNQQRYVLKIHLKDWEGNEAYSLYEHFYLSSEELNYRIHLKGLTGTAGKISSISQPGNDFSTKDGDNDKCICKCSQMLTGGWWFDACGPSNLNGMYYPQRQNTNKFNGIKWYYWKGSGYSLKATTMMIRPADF
Assay: ELISA
Each entry below carries its reported percent binding compared to human Ang-2.
Could you write the number and then its unit?

Study these solved cases before continuing.
[
  {
    "BINDER": "mAb 3.28.1 (antibody, part only; not given: light chain, V domains shown, part only) VH: EVQLVESGGGLVQPGGSLRLSCAASGFTFSSSWMSWVRQAPGKGLEWVANIKQDGSDKYYVDSVKGRFTISRDNAKNSLYLQMNSLRAEDTAVYYCVRDKGSGWFDYWGQGTLVTVSSA",
    "percent binding compared to human Ang-2": "100%"
  },
  {
    "BINDER": "mAb 5.2.1 (antibody, part only; not given: light chain, V domains shown, part only) VH: QVQLVESGGGVVQPGRSLRLSCAASGFTFSSYGMHWVRQAPGKGLEWVAVIWFDGFNKYYADSVKGRFTISRDNSKNTLYLQMNSLRAEDTAVYHCARDRGYSGYDHYYGMDVWGQGTTVTVSSA",
    "percent binding compared to human Ang-2": "100%"
  }
]

Quick one: give measured percent binding compared to human Ang-2 for mAb 3.3.2 (antibody, V domains shown) VH: EVQLVESGGGLVQPGGSLRLSCAVSGFTFSSYWMSWVRQAPGKGLEWVANIKQDGSEKYYVDSVKGRFTISRDNAKNSLYLQMNSLRAEDTAVYYCARDQGIAVAGPFDYWGQGTLVTVSS VL: EIVMTQSPATLSVSPGERATLSCRASQTVSSDLAWYQQKPGQAPRLLIYGASIRATGIPARFSGSGSGTEFTLTISSLQSEDFAVYSCQQYYNWWTFGQGTKVEIKR
100%
